measured-attribute: melting point

molecule | melting point
COc1cc2c(cc1OCc1ccccc1)CCN(S(=O)(=O)c1ccccc1OC)C2=O | 202 to 203 °C

Look up melting point for the entries below, preserving their order.
1. COc1cc2c(cc1OCc1ccccc1)CCN(Cc1ccccn1)C2
2. COc1cc2c(cc1O)CCN(S(=O)(=O)c1ccccc1OC)C2=O
3. COc1cccc(COc2cc3c(cc2OC)C(=O)N(Cc2cccc(OC)c2)CC3)c1
4. CCOc1cc(C(=O)N2CCc3cc(O)ccc3C2)cc(OCC)c1OCC
5. COc1cc2c(cc1OCc1ccccc1)C(OC)CN(Cc1cc(OC)c(OC)c(OC)c1)C2 (stereo not drawn)
6. CCOc1cccc(CN2CCc3cc(O)ccc3C2)c1

A)
1: 73 to 74 °C; 2: 222 to 224 °C; 3: 85 to 86 °C; 4: 158 °C; 5: 89 to 90 °C; 6: 120 to 121 °C

Hi, could you look up melting point for each item in my list?
1. COC(=O)c1ccccc1S(=O)(=O)N1CCc2cc(O)c(OC)cc2C1 [186A]
2. COc1cc2c(cc1OCc1ccccc1)CCN(Cc1cccc([N+](=O)[O-])c1)C2

A)
1: 134 to 138 °C; 2: 109 to 110 °C

Reference source for all entries: patent US8394825B2
